Target: rat GHS-R (GHS receptor) expressed on CHO-GHSR62 cells (rat, UniProt O08725 1-364)
Sequence (O08725 whole entry): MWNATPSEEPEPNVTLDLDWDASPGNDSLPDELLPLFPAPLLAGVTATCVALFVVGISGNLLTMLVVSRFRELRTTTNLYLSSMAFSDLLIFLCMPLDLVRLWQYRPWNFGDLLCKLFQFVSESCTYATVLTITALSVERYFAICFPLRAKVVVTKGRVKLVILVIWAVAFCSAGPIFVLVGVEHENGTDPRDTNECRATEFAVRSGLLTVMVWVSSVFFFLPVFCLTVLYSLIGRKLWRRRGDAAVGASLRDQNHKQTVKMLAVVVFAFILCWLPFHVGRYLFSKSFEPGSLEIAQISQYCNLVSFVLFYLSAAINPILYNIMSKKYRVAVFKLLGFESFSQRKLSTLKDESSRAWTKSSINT
Experiment: cell-based or functional assay
Ends that are not written are not given here. * marks the point of attachment. Palmitoyl = CCCCCCCCCCCCCCCC(=O)*; Octanoyl = CCCCCCCC(=O)*; Hexanoyl = CCCCCC(=O)*
Here, each record is paired with measured Ca-releasing activity (EC50, nM) data.
Quick reminder: number only, in nM, skip the unit.

{"columns": ["BINDER", "Ca-releasing activity (EC50, nM)"],
 "data": [
  ["GSS(Octanoyl)FLSPEHQKAQQR [rGhrelin (1-15)]", 8.6],
  ["GSS(Palmitoyl)FLSPEHQKAQQRKESKKPPAKLQPR [[Ser^3(Palmitoyl)]-rGhrelin]", 3.1],
  ["GSS(Hexanoyl)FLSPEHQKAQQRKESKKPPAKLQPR [[Ser^3(Hexanoyl)]-rGhrelin]", 16]
]}

# ---- query binder ----
INPUT: Which Ca-releasing activity (EC50, nM) value is on record for GSS(Octanoyl)FLSPEHQK [rGhrelin (1-11)] ?
OUTPUT: 15
